Recorded koff for the following binders
- target_desc: T1, human LAIR-1-ECD (human, UniProt Q6GTX8 22-165)
- T1 construct: Recombinant, expressed in mammalian cells; also called extracellular region of human LAIR-1
- T1 chain: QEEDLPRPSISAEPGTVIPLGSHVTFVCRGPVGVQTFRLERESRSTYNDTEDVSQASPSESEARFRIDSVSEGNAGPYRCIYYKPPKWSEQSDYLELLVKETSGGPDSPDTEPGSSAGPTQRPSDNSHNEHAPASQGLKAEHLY
- assay_protocol: SPR (Biacore); antibody captured by anti-Fc; LAIR-1-ECD injected;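 further: Anti-Fc immobilized on a CM5 chip, LAIR-1-ECD (human or cynomolgus) injected at 3.3-10 nM and 25 °C, kinetics fitted by simultaneous global fit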
Number in s⁻¹, nothing else.

Some entries whose results are on file:
{"binder": "anti-LAIR-1 antibody 108D10 (antibody, V domains shown, Monoclonal antibody from immunized mice (hybridoma)) VH: EVQLVETGGGLVQPKGSLKLSCAASGFTFNINAMNWVRQAPGKGLEWVARIRTKNNNYATYYADSVKDRFTISRDDSESMLYLQMNNLKTEDTAMYYCVRDRYGGAMAYWGQGTSVTVSS VL: DIQMTQSSSSFSVSLGDRVTITCKASEDIYNRLAWYQQKPGNVPRLLISSATSLETGVPSRFSGSGSGKDYTLSLTSLQSEDVATYYCQQYWTIPYTFGGGTKLEIK", "koff (s⁻¹)": 0.00043}
{"binder": "anti-LAIR-1 antibody 57D12 (antibody, V domains shown, Monoclonal antibody from immunized mice (hybridoma)) VH: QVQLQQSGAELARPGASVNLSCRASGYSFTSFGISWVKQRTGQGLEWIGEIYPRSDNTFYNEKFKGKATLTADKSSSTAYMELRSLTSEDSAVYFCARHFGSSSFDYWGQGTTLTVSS VL: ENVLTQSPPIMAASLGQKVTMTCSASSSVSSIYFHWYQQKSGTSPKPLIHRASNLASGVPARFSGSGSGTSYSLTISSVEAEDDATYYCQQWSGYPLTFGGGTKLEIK", "koff (s⁻¹)": "4.5e-05"}

Prompt: Item anti-LAIR-1 antibody 62G10 (antibody, V domains shown, Monoclonal antibody from immunized mice (hybridoma)) VH: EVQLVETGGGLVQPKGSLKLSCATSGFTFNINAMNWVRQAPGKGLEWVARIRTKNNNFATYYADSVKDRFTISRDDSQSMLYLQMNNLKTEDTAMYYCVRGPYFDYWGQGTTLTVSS VL: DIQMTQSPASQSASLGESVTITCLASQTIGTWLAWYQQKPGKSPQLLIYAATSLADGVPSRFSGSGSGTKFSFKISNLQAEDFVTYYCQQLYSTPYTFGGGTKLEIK : provide koff
Response: 0.00018
